Reported % inhibition of forskolin-stimulate cAMP formation in hMOPr HEK cells (10 um) values for a set of binders
# targetSystem: human µ-opioid receptor (hMOPr), human recombinant MOPr expressed in HEK-293 cells (human, UniProt P35372 1-400)
# Sequence (P35372 whole entry): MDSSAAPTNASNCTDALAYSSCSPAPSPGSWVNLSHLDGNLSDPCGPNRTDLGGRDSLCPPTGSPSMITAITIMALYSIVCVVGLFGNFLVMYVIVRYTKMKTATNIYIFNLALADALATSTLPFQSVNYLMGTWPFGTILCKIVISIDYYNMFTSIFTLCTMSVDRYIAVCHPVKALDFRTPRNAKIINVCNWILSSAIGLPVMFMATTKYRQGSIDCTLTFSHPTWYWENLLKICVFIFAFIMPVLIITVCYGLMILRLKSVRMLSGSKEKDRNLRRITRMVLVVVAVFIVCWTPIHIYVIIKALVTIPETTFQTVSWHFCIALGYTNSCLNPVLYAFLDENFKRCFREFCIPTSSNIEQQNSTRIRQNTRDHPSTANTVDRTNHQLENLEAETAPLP
# procedureDetails: cell-based or functional assay
Non-standard residues stand in square brackets, D forms with d.
Number first, unit second: that is the form wanted.

Below are worked cases with known answers.
binder	assayResult
H-FGG[dY]-NH2 (SMILES NC(=O)[C@@H](Cc1ccc(O)cc1)NC(=O)CNC(=O)CNC(=O)[C@@H](N)Cc1ccccc1) [H-FGGy-NH2]	0%
H-F[dV]V[dY]-NH2 (SMILES CC(C)[C@H](NC(=O)[C@H](NC(=O)[C@@H](N)Cc1ccccc1)C(C)C)C(=O)N[C@H](Cc1ccc(O)cc1)C(N)=O) [H-FvVy-NH2]	0%
H-FV[dV][dF]-OH [H-FVvf-OH]	0%
H-F[dV]V[dY]-OH (SMILES CC(C)[C@H](NC(=O)[C@H](NC(=O)[C@@H](N)Cc1ccccc1)C(C)C)C(=O)N[C@H](Cc1ccc(O)cc1)C(=O)O) [bilaid B (H-FvVy-OH)]	0%

Shift focus to the following entry.
(Q) Quick check: % inhibition of forskolin-stimulate cAMP formation in hMOPr HEK cells (10 um) of H-F[dV]V[dF]-OH (SMILES CC(C)[C@H](NC(=O)[C@H](NC(=O)[C@@H](N)Cc1ccccc1)C(C)C)C(=O)N[C@H](Cc1ccccc1)C(=O)O, Natural product of Penicillium sp; MST-MF667; made by Fmoc synthesis for the assays; also called 1a; peptide 1a) [bilaid A (H-FvVf-OH; L-Phe-D-Val-L-Val-D-Phe)] ?
(A) 21%

# credit: patent US20210355166A1
